Cited source for all entries: patent US20180280496A1

assayed-target: T1, H-2Kb (mouse), P01901
T1 chain: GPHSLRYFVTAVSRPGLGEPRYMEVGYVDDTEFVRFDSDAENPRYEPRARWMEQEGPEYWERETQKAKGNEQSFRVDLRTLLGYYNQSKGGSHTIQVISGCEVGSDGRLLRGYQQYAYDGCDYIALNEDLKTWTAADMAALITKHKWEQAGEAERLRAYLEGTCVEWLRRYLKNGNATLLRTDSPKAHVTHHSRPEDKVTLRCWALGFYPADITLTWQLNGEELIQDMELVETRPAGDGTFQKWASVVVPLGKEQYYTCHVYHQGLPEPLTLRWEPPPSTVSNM
test-method-notes: ProImmune REVEAL MHC class I-peptide binding assay
Each entry gets Condition not met if its REVEAL score at 0 h stays under 60, and Condition met if its REVEAL score at 0 h is 60 or above.

{"columns": ["binder", "assigned-category"],
 "data": [
  ["HATFTMRLL (modifications not checked)", "Condition met"],
  ["QQRVFKEKV (modifications not checked)", "Condition met"],
  ["LSRNSTHEM (modifications not checked)", "Condition not met"],
  ["LAPTRVVAA (modifications not checked)", "Condition met"],
  ["LMYFHRRDL (modifications not checked)", "Condition not met"],
  ["ATFTMRLLS (modifications not checked)", "Condition not met"],
  ["YGLNTFTNM (modifications not checked)", "Condition met"],
  ["FKPGTSGSP (modifications not checked)", "Condition not met"]
]}
